# assayNotes: qHTS Assay for Rab9 Promoter Activators; note: nearly all actives have a fitted effect of over 60% in size
# condition: Huh7 Rab9 promoter-luciferase reporter, luminescence, 24 h; series mostly up to 9.22 µM
In all, about 320,000 compounds went through this assay and about 9,100 (2.8%) were called active. About 3% were inconclusive and are not listed. Calls come from the whole dose curve; as a rule, active = well fitted activation curve with a large enough effect; inconclusive = small, poorly fitted or top-dose-only effect; inactive = no such curve, though single readings can be large or run the other way. This excerpt belongs to a sample that is enriched for actives.
// allowed return values: Y = active, N = inactive

Cc1ccc(S(=O)(=O)Nc2nc3ccccc3s2)cc1[N+](=O)[O-] :: N
CC1CCCCC12NC(=O)N(CC(=O)OCC(=O)NCc1ccc(F)cc1)C2=O (configuration not stated) :: N
O=[N+]([O-])c1cc(Br)c(O)c(/C=N/Nc2nc3ccccc3s2)c1 :: N
CSc1nc2ccc(NC(=O)c3c(F)cccc3F)cc2s1 :: Y
O=C(CSc1nc2ccccc2c(=O)n1CCCO)NC1CC1 :: N

Exam item: In this assay, the call recorded for "Cc1cnc(C(=O)OCC(=O)N2CCc3ccccc32)cn1" was what?
Marked response: N

Exam item: Next entry: "O=C(CN1CCN(c2ccccc2F)CC1)c1ccc2c(c1)OCO2"
Marked response: N

====

# assayNotes: qHTS Assay for Rab9 Promoter Activators; note: nearly all actives have a fitted effect of over 60% in size
# condition: Huh7 Rab9 promoter-luciferase reporter, luminescence, 24 h; series mostly up to 9.22 µM
About 9,100 (2.8%) of roughly 320,000 compounds were called active. Not shown: some 3% with an inconclusive outcome. The call rests on the fitted dose curve; in most records, active means well fitted activation curve with a large enough effect; inconclusive means small, poorly fitted or top-dose-only effect; inactive means no such curve, though single readings can be large or run the other way. Only a selection was taken, and actives are over-represented in it overall.
// allowed return values: TRUE (active), FALSE (inactive)

Cc1[nH]n(-c2cccc(Cl)c2)c(=O)c1-c1ccc(Cl)cc1 :: FALSE
O=C(NCCCn1ccnc1)c1cc(-c2ccccc2)on1 :: TRUE
Cc1cc(C)nc(Nc2cc([N+](=O)[O-])ccc2C)n1 :: FALSE

Exam item: In this assay, the call recorded for Cc1ccn(CCC(=O)N2c3ccccc3CC2C)n1 (stereo not drawn) was what?
Marked response: FALSE

Exam item: Next entry: "O=C(Nc1cccc(NC(=O)c2ccco2)c1)c1cnccn1"
Marked response: FALSE

Exam item: Next entry: "Cc1ccc(S(=O)(=O)NCC(=O)Nc2ccc3c(c2)OCCO3)cc1"
Marked response: FALSE

Exam item: Next entry: COc1ccc(CCNC(=O)COC(=O)C2CC2C)cc1 (stereo not drawn)
Marked response: FALSE

Exam item: Next entry: "CCOC(=O)c1nc(-c2ccc3c(c2)OCO3)[nH]c1C"
Marked response: FALSE

====

# assayNotes: qHTS Assay for Rab9 Promoter Activators; note: nearly all actives have a fitted effect of over 60% in size
# condition: Huh7 Rab9 promoter-luciferase reporter, luminescence, 24 h; series mostly up to 9.22 µM
Out of some 320,000 compounds screened, about 9,100 (2.8%) were called active. Roughly 3% stayed inconclusive and do not appear here. Calls come from the whole dose curve; as a rule, active = well fitted activation curve with a large enough effect; inconclusive = small, poorly fitted or top-dose-only effect; inactive = no such curve, though single readings can be large or run the other way. This excerpt belongs to a sample that is enriched for actives.
// allowed return values: active, inactive

Answered examples (8):
O=C(O)c1ccccc1C(=O)Nc1nc(-c2ccccc2)cs1 :: inactive
N/C(=N\OC(=O)c1ccc2c(c1)OCO2)c1ccc(Br)cc1 :: active
COc1ccccc1OCC(=O)OCc1cc(-c2ccco2)on1 :: inactive
O=C(Nc1ccc2c(c1)CCC2)c1ccc(Br)s1 :: active
O=C(NC1CCCC1)c1ccc(Br)s1 :: inactive
COCCNc1nnc(SCC(=O)NNC(=O)c2ccco2)s1 :: inactive
COC(=O)c1ccc(/C=N\n2c(C)nnc2C)cc1 :: inactive
CCNC(=O)c1cccc(NC(=O)C2CC(=O)N(CCc3ccccc3)C2)c1 (centres undefined) :: inactive

Exam item: In this assay, the call recorded for "CN(c1ccc(O)cc1)c1nc(-c2cccnc2)cs1" was what?
Marked response: inactive

Exam item: Next entry: "COc1ccc(CCNC(=O)COC(=O)Cc2cccc(F)c2)cc1"
Marked response: inactive

Exam item: Next entry: "COC(=O)C1=CN(c2ccc(F)c(F)c2)C=C(C(=O)OC)C1c1ccc([N+](=O)[O-])cc1"
Marked response: inactive

Exam item: Next entry: "COc1ccc(C(=O)NNC(=O)c2cnccn2)cc1[N+](=O)[O-]"
Marked response: inactive

Exam item: Next entry: "CC(C)C(=O)OCC(=O)Nc1ccc2c(c1)CCC2"
Marked response: inactive

Exam item: Next entry: "Cc1ccc(C(=O)O/N=C(\N)c2ccccn2)cc1Cl"
Marked response: active
